Biological target: T1, CRBN, Q96SW2;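 note: pooled lentiviral library of zinc finger degron-EGFP fusions in mCherry-positive Jurkat cells, FACS-sorted after compound exposure, with degron abundance counted by next-generation sequencing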
T1 chain: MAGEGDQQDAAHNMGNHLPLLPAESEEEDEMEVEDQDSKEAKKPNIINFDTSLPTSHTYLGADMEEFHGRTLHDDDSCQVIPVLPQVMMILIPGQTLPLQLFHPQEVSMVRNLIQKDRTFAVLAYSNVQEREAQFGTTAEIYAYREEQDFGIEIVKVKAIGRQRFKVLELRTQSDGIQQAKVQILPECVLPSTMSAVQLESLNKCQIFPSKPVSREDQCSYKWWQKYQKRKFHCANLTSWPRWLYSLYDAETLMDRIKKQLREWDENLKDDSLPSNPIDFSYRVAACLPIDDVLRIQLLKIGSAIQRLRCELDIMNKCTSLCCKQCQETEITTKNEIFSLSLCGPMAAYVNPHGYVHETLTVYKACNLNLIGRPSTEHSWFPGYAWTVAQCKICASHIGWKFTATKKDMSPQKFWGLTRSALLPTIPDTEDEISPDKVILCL
Test: log2 fold change of degron read counts, EGFP-low vs EGFP+ sorted cells (limma voom), compound-induced degradation; higher = more compound-induced degradation of the degron-EGFP fusion; degrons are variants of IKZF1/3 zinc finger 2; compound dose not given here
Conditions: Jurkat; 18 h; compound: compound 22 (5-morpholino-thalidomide)
The full ranking holds about 8,300 sequences; the median of “log2 fold change of degron read counts, EGFP-low vs EGFP+ sorted cells (limma voom), compound-induced degradation” is about -1.1, and the highest 2% start at about 3.2. What follows is part of a selection rich in the highest values, with near analogues and random picks from the rest.
Think of 2 as a floor: if log2 fold change of degron read counts stands on it or above, it is Yes; beneath it, No.

The following sequences have reported results that may help.
{"POLYMER SEQUENCE": "FQCEICGAMFTQKGNLLRHIKL [46F_47Q_49E_50I_52G_53A_54M_55F_67L_, Q9UKT9]", "CATEGORY LABEL": "Yes"}
{"POLYMER SEQUENCE": "FHCEICGAMFTQKGNLLRHIKL [46F_47H_49E_50I_52G_53A_54M_55F_67L_, Q9UKT9]", "CATEGORY LABEL": "No"}
{"POLYMER SEQUENCE": "FACEICGAMFTQKGNLLRHIKL [46F_47A_49E_50I_52G_53A_54M_55F_67L_, Q9UKT9]", "CATEGORY LABEL": "No"}

input: Item FWCEICGAMFTQKGNLLRHIKL [46F_47W_49E_50I_52G_53A_54M_55F_67L_, Q9UKT9] with log2 fold change of degron read counts of 2 or above?
output: Yes

input: // query: FDCEICGAMFTQKGNLLRHIKL [46F_47D_49E_50I_52G_53A_54M_55F_67L_, Q9UKT9]
output: No

input: // query: FGCEICGAMFTQKGNLLRHIKL [46F_47G_49E_50I_52G_53A_54M_55F_67L_, Q9UKT9]
output: Yes

input: // query: FECEICGAMFTQKGNLLRHIKL [46F_47E_49E_50I_52G_53A_54M_55F_67L_, Q9UKT9]
output: No
